Data origin: the supplement of paper PMC8728848

# MEASUREMENT_TARGET: GlcA(b1-6)Gal
# ASSAY_TEXT: glycan array binding signal (z-score within array); higher = stronger binding
# CONDITION: glycan notation: IUPAC condensed, linker removed
About 410 targets per protein were measured; listed, in parts, are those with the strongest signals and a random draw of the rest.
Criterion: glycan array binding signal (z-score) meeting or surpassing -0.1. Met: condition met. Not met: condition not met.

Study these solved cases before continuing.
[[record]]
binder = "LcH (Lens culinaris), P02870 (protein) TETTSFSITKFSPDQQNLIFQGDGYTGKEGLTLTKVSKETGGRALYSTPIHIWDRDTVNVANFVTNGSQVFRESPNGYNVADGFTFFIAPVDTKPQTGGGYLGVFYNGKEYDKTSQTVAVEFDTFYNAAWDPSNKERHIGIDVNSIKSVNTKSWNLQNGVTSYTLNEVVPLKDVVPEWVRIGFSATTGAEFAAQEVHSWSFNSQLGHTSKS"
label = "condition not met"

[[record]]
binder = "Arath Fbox LD (Arabidopsis thaliana) (protein) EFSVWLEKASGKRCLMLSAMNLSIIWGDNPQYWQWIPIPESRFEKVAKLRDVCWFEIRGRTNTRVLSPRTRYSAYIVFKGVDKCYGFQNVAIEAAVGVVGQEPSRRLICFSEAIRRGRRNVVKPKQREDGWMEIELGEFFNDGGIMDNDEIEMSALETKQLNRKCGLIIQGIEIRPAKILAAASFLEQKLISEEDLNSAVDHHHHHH"
label = "condition met"

[[record]]
binder = "Microvirin-2 (Microcystis aeruginosa) (protein) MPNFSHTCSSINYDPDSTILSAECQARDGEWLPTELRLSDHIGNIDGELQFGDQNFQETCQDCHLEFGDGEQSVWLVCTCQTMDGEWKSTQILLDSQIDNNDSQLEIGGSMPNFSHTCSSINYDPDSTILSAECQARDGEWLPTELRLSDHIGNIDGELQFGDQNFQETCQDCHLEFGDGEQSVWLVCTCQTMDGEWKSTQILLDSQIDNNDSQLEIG"
label = "condition not met"

[[record]]
binder = "M6PR (Bos taurus), P11456 (protein) MMSPLHSSWRTGLLLLLLFSVAVRESWQTEEKTCDLVGEKGKESEKELALLKRLTPLFNKSFESTVGQSPDMYSYVFRVCREAGNHSSGAGLVQINKSNGKETVVGRFNETQIFNGSNWIMLIYKGGDEYDNHCGREQRRAVVMISCNRHTLADNFN"
label = "condition not met"


Pending binder:
Does Neuropilin-1 (Homo sapiens), O14786 (protein) FKCMEALGMESGEIHSDQITASSQYSTNWSAERSRLNYPENGWTPGEDSYREWIQVDLGLLRFVTAVGTQGAISKETKKKYYVKTYKIDVSSNGEDWITIKEGNKPVLFQGNTNPTDVVVAVFPKPLITRFVRIKPATWETGISMRFEVYGCKITDYPCSGMLGMVSGLISDSQITSSNQGDRNWMPENIRLVTSRSGWALPPAPHSYINEWLQIDLGEEKIVRGIIIQGGKHRENKVFMRKFKIGYSNNGSDWKMIMDDSKRKAKSFEGNNNYDTPELRTFPALSTRFIRIYPERATHGGLGLRMELLGCEVE have a reported glycan array binding signal (z-score) of at least -0.1?
condition not met
